Molecular target: T1, recombinant LAIR1 (human, UniProt Q6GTX8 22-165, limits assumed)
T1 construct: also called LAIR1 (Octet analyte)
T1 chain: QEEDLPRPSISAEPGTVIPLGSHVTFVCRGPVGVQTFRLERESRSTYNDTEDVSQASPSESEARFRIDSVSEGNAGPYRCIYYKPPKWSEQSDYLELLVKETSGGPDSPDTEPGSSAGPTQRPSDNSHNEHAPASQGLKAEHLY
Assay: BLI (Octet), mAb on protein A sensor, recombinant LAIR1 0.1-200 nM, 1:1 fit
experimental.endpoint: koff
In your response, put the unit directly after the numeric value.

query: If you can, please state the reported koff value of LA-259-2 (antibody, V domains shown, Rabbit monoclonal IgG) VH: QSVKESGGRLVTPGTPLTLTCTASGFSLYKYNIQWVRQAPGKGLEYIGASTYAGYTYYASWAKGRVTISRTSTTVDLKMTSPTTEDTATYFCARHIDGDYSGYALWGPGTLVTISS VL: ELVMTQTPASVSAAVGGTVTIKCQASQSIGTWFAWYQQKPGQSPKLLIYGPSKLASGVPPRFKGSGSGTEFTLTISDLECDDAATYYCQSNGGSISNGWGSFGGGTEVVVK .
result: 4.23e-05 s⁻¹

// data source = patent US20190338026A1
